Assay: Selectivity index, ratio of CC50 for cytotoxicity against human MRC5 cells to EC50 for Trypanosoma cruzi Tulahuen CL2 amastigotes expressing beta galactosidase infected in human MRC5 cells
Format: toxicity, cell-based
Conditions: read-out: Selectivity Index
In this section we review reported selectivity ratio values for a set of compounds.

Molecular string: CN1CCC(n2c(NC(=O)c3ccnn3C)nc3ccc(C#N)cc32)CC1
Value relation sign: >
selectivity ratio: 2
--
Molecular string: Cn1nccc1C(=O)Nc1nc2cccnc2n1CC(C)(C)C
Value relation sign: =
selectivity ratio: 20
--
Molecular string: CC(C)(C)Cn1c(NC(=O)c2ccc(C(F)(F)F)nc2)nc2ccc(C#N)cc21
Value relation sign: >
selectivity ratio: 1
--
Molecular string: N#Cc1ccc2nc(NC(=O)c3ccn(C4CC4)n3)n(CC(F)(F)F)c2c1
Value relation sign: >
selectivity ratio: 15
--
Molecular string: Cc1nn[nH]c1C(=O)Nc1nc2ccc(C#N)cc2n1CC(F)(F)F
Value relation sign: =
selectivity ratio: 1
--
Molecular string: CCCn1c(NC(=O)c2cccnc2)nc2cc(F)c(F)cc21
Value relation sign: >
selectivity ratio: 30
--
Molecular string: N#Cc1ccc2nc(NC(=O)c3ccnc(C(F)(F)F)c3)n(CC(F)F)c2c1
Value relation sign: =
selectivity ratio: 24
--
Molecular string: O=C(Nc1nc2ccc(F)cc2n1CC(F)(F)F)c1ccc(C(F)(F)F)nc1
Value relation sign: >
selectivity ratio: 2
--
Molecular string: N#Cc1ccc2nc(NC(=O)c3ccnc(C(F)(F)F)c3)n(CCF)c2c1
Value relation sign: =
selectivity ratio: 1
--
Molecular string: Cc1cc(C(=O)Nc2nc3ccc(C#N)cc3n2CC(F)(F)F)[nH]n1
Value relation sign: =
selectivity ratio: 1
--
Molecular string: CCCn1c(NC(=O)c2cccnc2)nc2cccnc21
Value relation sign: >
selectivity ratio: 15
--
Molecular string: CCCn1c(NC(=O)c2ccccn2)nc2cc(F)ccc21
Value relation sign: =
selectivity ratio: 7
--
Molecular string: CCCn1c(NC(=O)Cc2ccc(F)cc2)nc2ccc(C(=O)NCOC)cc21
Value relation sign: =
selectivity ratio: 7
--
Molecular string: Cn1nccc1C(=O)Nc1nc2ccc(C#N)cc2n1CC(F)(F)F
Value relation sign: =
selectivity ratio: 8
--
Molecular string: N#Cc1ccc2nc(NC(=O)c3cc(C(F)(F)F)nn3CC(=O)O)n(CC(F)(F)F)c2c1
Value relation sign: =
selectivity ratio: 1
--
Molecular string: O=C(Nc1nc2cc(F)ccc2n1C1CCNCC1)c1cccnc1
Value relation sign: =
selectivity ratio: 3
--
Molecular string: Cn1nc(C(F)(F)F)cc1C(=O)Nc1nc2ccc(C#N)cc2n1CCF
Value relation sign: =
selectivity ratio: 11
--
Molecular string: Cn1nccc1C(=O)Nc1nc2cc(-c3ncco3)ccc2n1CC(F)(F)F
Value relation sign: =
selectivity ratio: 1
--
Molecular string: Cc1nc(C)c(C(=O)Nc2nc3ccc(C#N)cc3n2CC(F)(F)F)s1
Value relation sign: =
selectivity ratio: 14
--
Molecular string: Cc1cc(C(=O)Nc2nc3ccc(C#N)cc3n2CC(F)(F)F)nn1C
Value relation sign: =
selectivity ratio: 1
--
Molecular string: O=C(Nc1nc2cncnc2n1CC(F)(F)F)c1cc(C(F)(F)F)n[nH]1
Value relation sign: =
selectivity ratio: 4
--
Molecular string: COCCn1c(NC(=O)c2ccc(C(F)(F)F)nc2)nc2ccc(C#N)cc21
Value relation sign: =
selectivity ratio: 1
--
Molecular string: COCCn1c(NC(=O)c2ccnn2C)nc2ccc(C#N)cc21
Value relation sign: >
selectivity ratio: 7
--
Molecular string: CN(C)c1ccc(C(=O)Nc2nc3ccc(C#N)cc3n2CC(F)(F)F)cn1
Value relation sign: >
selectivity ratio: 7
--
Molecular string: N#Cc1ccc2nc(NC(=O)c3ccc(C(F)(F)F)nc3)n(CC(F)(F)F)c2c1
Value relation sign: >
selectivity ratio: 25
--
Molecular string: CC(=O)N1CCC(n2c(NC(=O)c3ccnn3C)nc3ccc(C#N)cc32)CC1
Value relation sign: =
selectivity ratio: 1
--
Molecular string: N#Cc1ccc2nc(NC(=O)c3cc(C(F)(F)F)n[nH]3)n(CC(F)(F)F)c2c1
Value relation sign: >
selectivity ratio: 42
--
Molecular string: CCCn1c(NC(=O)Cc2ccc(Cl)cc2)nc2cc(F)ccc21
Value relation sign: >
selectivity ratio: 70
--
Molecular string: CCCn1c(NC(=O)Cc2ccc(F)cc2)nc2ccc(C(=O)O)cc21
Value relation sign: =
selectivity ratio: 1
--
Molecular string: N#Cc1ccc2nc(NC(=O)c3cnc(C(F)(F)F)nc3)n(CC(F)(F)F)c2c1
Value relation sign: =
selectivity ratio: 8
--
Molecular string: O=C(Nc1nc2ccc(F)cc2n1C1CC1)c1cccnc1
Value relation sign: >
selectivity ratio: 2
--
Molecular string: Cn1nccc1C(=O)Nc1nc2cncnc2n1CC(F)(F)F
Value relation sign: =
selectivity ratio: 3
--
Molecular string: Cc1nnnn1CC(=O)Nc1nc2ccc(C#N)cc2n1CC(F)(F)F
Value relation sign: >
selectivity ratio: 1
--
Molecular string: Cc1ccc(C(=O)Nc2nc3ccc(C#N)cc3n2CC(F)(F)F)cn1
Value relation sign: =
selectivity ratio: 1
--
Molecular string: CCCn1c(NC(=O)Cc2ccc(F)cc2)nc2ccc(C(=O)OC)cc21
Value relation sign: =
selectivity ratio: 35
--
Molecular string: Cn1nccc1C(=O)Nc1nc2cccnc2n1CC(F)(F)F
Value relation sign: =
selectivity ratio: 2
--
Molecular string: Cn1nc(C(=O)Nc2nc3ccc(C#N)cc3n2CC(F)(F)F)cc1C(F)(F)F
Value relation sign: =
selectivity ratio: 1
--
Molecular string: CCCn1c(NC(=O)Cc2cc(F)ccc2F)nc2cc(F)c(F)cc21
Value relation sign: =
selectivity ratio: 52
--
Molecular string: CCCn1c(NC(=O)c2ccc(C(F)(F)F)nc2)nc2cccnc21
Value relation sign: =
selectivity ratio: 15
--
Molecular string: O=C(Nc1nc2cc(F)cnc2n1CC(F)(F)F)c1ccc(C(F)(F)F)nc1
Value relation sign: =
selectivity ratio: 6
--
Molecular string: Cn1nccc1C(=O)Nc1nc2cc(CO)ccc2n1CC(F)(F)F
Value relation sign: =
selectivity ratio: 1
--
Molecular string: N#Cc1ccc2nc(NC(=O)Cn3cccn3)n(CC(F)(F)F)c2c1
Value relation sign: =
selectivity ratio: 9
--
Molecular string: CCCn1c(NC(=O)Cc2ccc(F)cc2)nc2cccnc21
Value relation sign: >
selectivity ratio: 49
--
Molecular string: O=C(Nc1nc2ccc(F)cc2n1CC(F)(F)F)c1cccnc1
Value relation sign: =
selectivity ratio: 13

###

Experiment: Cytotoxicity against rat L6 cells assessed as reduction in cell viability measured after 24 hrs by colorimetric assay
Format: toxicity, cell-based
Reported CC50 at 24 h is given for each of the following compounds.

Molecular string: N#Cc1ccc2nc(NC(=O)c3ccnc(C(F)(F)F)c3)n(CC(F)(F)F)c2c1
Units of measure: µM
CC50 at 24 h: 50
//
Molecular string: N#Cc1ccc2nc(NC(=O)c3ccc(C(F)(F)F)nc3)n(CC(F)(F)F)c2c1
Units of measure: µM
CC50 at 24 h: 18
//
Molecular string: Cn1nc(C(F)(F)F)cc1C(=O)Nc1nc2ccc(C#N)cc2n1CC(F)(F)F
Units of measure: µM
CC50 at 24 h: 19
//
Molecular string: N#Cc1ccc2nc(NC(=O)c3cc(C(F)(F)F)n[nH]3)n(CC(F)(F)F)c2c1
Units of measure: µM
CC50 at 24 h: 12

###

Measured pIC50, listed per entry for reference.
Tested on: Trypanosoma cruzi
Assay: Antitrypanosomal activity against Trypanosoma cruzi Tulahuen CL2 amastigotes expressing beta galactosidase infected in human MRC5 cells assessed as reduction in parasite burden using chlorophenol red beta-D-galactopyranoside as substrate and measured after 7 days by spectrophotometric analysis
Format: functional, organism-based
Settings: Tulahuen CL2, MRC5, 168 h
pIC50: −log10 of the molar value.
Recorded metric: pIC50

Molecular string: CCCn1c(NC(=O)Cc2ccc(F)cc2)nc2ccc(C(=O)O)cc21
Recorded metric: pIC50
Value relation sign: <
Value: 4.19
--
Molecular string: O=C(Nc1nc2ccc(F)cc2n1CC(F)(F)F)c1cccnc1
Recorded metric: pIC50
Value relation sign: =
Value: 5.38
--
Molecular string: Cn1nc(C(=O)Nc2nc3ccc(C#N)cc3n2CC(F)(F)F)cc1C(F)(F)F
Recorded metric: pIC50
Value relation sign: =
Value: 4.19
--
Molecular string: Cn1nc(C(F)(F)F)cc1C(=O)Nc1nc2ccc(C#N)cc2n1CCF
Recorded metric: pIC50
Value relation sign: =
Value: 5.68
--
Molecular string: Cc1cc(C(=O)Nc2nc3ccc(C#N)cc3n2CC(F)(F)F)[nH]n1
Recorded metric: pIC50
Value relation sign: =
Value: 4.44
--
Molecular string: Cc1nnnn1CC(=O)Nc1nc2ccc(C#N)cc2n1CC(F)(F)F
Recorded metric: pIC50
Value relation sign: =
Value: 4.30
--
Molecular string: CCCn1c(NC(=O)Cc2ccc(F)cc2)nc2ccc(C(=O)OC)cc21
Recorded metric: pIC50
Value relation sign: =
Value: 6.28
--
Molecular string: Cc1nnn(CC(=O)Nc2nc3ccc(C#N)cc3n2CC(F)(F)F)n1
Recorded metric: pIC50
Value relation sign: =
Value: 4.96
